Please go through the items and note down their koff.
Molecular target: T1, recombinant human IL-13 (human, UniProt P35225 35-146)
T1 construct: also called rh-IL-13; hIL-13
T1 sequence (P35225 35-146 limits assumed): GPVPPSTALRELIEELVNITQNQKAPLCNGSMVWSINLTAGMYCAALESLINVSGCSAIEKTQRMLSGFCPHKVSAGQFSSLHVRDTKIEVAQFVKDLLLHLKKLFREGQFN
Test: SPR
Field format: number, assumed s⁻¹, no unit text.

## Task Using the record for BDG38.139 (antibody, V domains shown, IgG1) VH: QMQLVESGGGVVQPGRSLRLSCAASGFAFRTYGMHWVRQAPGKGLEWVAVIWDDGSNTHYADSVKGRFTITRDNSKNTLNLQMNSLRAEDTAVYYCVRAPQWYLSAEAFDLWGQGTMVTVSS VL: SYVLTQPPSVSVAPGETATITCGGNMIGAYLVHWYQQKPGQAPLLVIYDDVDRPARIPERFSGSNSGNTATLTISRVEAGDEADYYCQVWDHNSDHMVFGGGTKLTVL , report its koff.
## Result 0.000212

## Task Next record, please: BDG38.132 (antibody, V domains shown, IgG1) VH: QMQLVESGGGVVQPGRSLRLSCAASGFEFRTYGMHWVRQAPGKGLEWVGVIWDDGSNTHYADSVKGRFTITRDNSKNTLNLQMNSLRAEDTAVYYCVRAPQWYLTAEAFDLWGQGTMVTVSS VL: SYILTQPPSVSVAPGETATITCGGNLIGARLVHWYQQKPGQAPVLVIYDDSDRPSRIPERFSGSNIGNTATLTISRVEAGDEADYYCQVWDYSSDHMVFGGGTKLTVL
## Result 0.000184

## Task Next record, please: BDG38.131 (antibody, V domains shown, IgG1) VH: QMQLVESGGGVVQPGRSLTLSCAASGFEFRTYGMHWVRQAPGKGLEWVAVIWDDGSNTHYADSVKGRFTITRDNSKNTLNLQMNSLRAEDTAVYYCVRAPQWYLTAEAFDLWGQGTMVTVSS VL: SYILTQPPSVSVAPGETATITCGGNLIGAKLVHWYQQKPGQAPVLVIYDDSDRPSRIPERFSGSNIGNTATLTISDVEEGDEADYYCQVWDYYSNTMVFGGGTKLTVL
## Result 0.000356

Entry source: patent US20240059769A1
